All values here come from PubChem BioAssay (NCI).

# Tested on: NCI-H522 lung
# Protocol summary: NCI-60 one-dose screen, 48 h (100 = growth as untreated, 0 = no growth, -100 = all killed)
# Study conditions: 10 µM unless noted
# Protocol: Growth inhibition of the NCI-H522 human Non-Small Cell Lung tumor cell line is measured as a screen for anti-cancer activity. Cells are grown in 96 well plates and exposed to the test compound for 48 hours. Compounds are tested at a single concentration, which is 10^-5 M for most compounds. The reported endpoint is percent growth (GI% or GIPRCNT), where numbers from 0 - 100% represent growth inhibition, and numbers from -100% - 0 represent cell death. […]
The panel holds about 83,000 compounds, 20% with a hit somewhere; the sample as a whole holds those more often.
Each entry below carries its reported growth.
Measured metric: growth (%)

Compound	Display unit	Result number
COc1cc2oc(-c3cccc(C(=O)Nc4ccc(Cl)cc4)c3)cc(=O)c2c(OCCNC(=O)[C@@H](N)CCC(=O)O)c1OC	%	82.8
CC1CN(c2oc(-c3ccc([N+](=O)[O-])cc3)nc2C#N)CC(C)O1 (stereo not given)	%	100
COc1ccc(/C=N/NC(=O)Cn2nc(Cc3ccc(OC)cc3)c3onc(C)c3c2=O)cc1	%	58.1
Cc1ccc(-c2nc(Nc3ccccc3S(N)(=O)=O)c3ccccc3n2)cc1	%	81.4
CC(=O)N1CCN(Cc2ccc3c(NNC(=O)c4cnccn4)nc4cc(F)ccc4n23)CC1	%	57.2

---

# Test system: UO-31 renal
# Protocol summary: NCI-60 one-dose screen, 48 h (100 = growth as untreated, 0 = no growth, -100 = all killed)
# Study conditions: 10 µM unless noted
About 83,000 compounds went through this panel and 20% of them were active in at least one assay; those are over-represented in the sample as a whole.
Classify by measured growth: 1 if it is equal to or exceeds 80%, -1 if it is smaller.

Compound	Category label
COc1ccc(-c2cc(C(=O)NCc3ccccc3)nn2-c2ccc(S(C)(=O)=O)cc2)cc1OC	-1
NS(=O)(=O)c1ccc(NNC(=O)CCC(=O)c2ccccc2)cc1	1
O=C(O)c1ccc(-c2ccc(/C=N/NC(=O)c3[nH]c4ccc(Br)cc4c3-c3ccccc3)s2)cc1	-1
CC1(C)CC[C@]2(C(=O)O)CC[C@]3(C)C(=CCC4[C@@]5(C)C[C@@H](O)[C@@H]6OC(c7ccco7)OC[C@@]6(C)C5CC[C@]43C)C2C1 (some centres undefined)	-1
COc1ccc(-c2nc3cc(C)ccc3n2CC(=O)N=Nc2c(O)[nH]c3ccc(Cl)cc23)cc1	-1
Nc1cccc(SCc2cc3ccccc3[nH]c2=O)c1	-1
CCOC(=O)c1ccc(Nc2nc(NN)nc(-c3ccc(F)cc3)c2C#N)cc1	1
CCN1C(=O)/C(=N\N=C(/C)c2ccc3c(c2)Nc2ccccc2S3)c2cc(Cl)ccc21	-1
CCOC(=O)C(N=Nc1ccc(S(=O)(=O)N=C(N)N)cc1)C(C)=O (centres undefined)	1

---

# growth values compiled below
# Test system: 786-0 renal
# Protocol summary: NCI-60 one-dose screen, 48 h (100 = growth as untreated, 0 = no growth, -100 = all killed)
# Study conditions: 10 µM unless noted
Compounds without any hit were thinned out: in the full panel of roughly 83,000, 20% have a hit.
Measured metric: growth (%)

Compound	Test system	Measured metric	Display unit	Result number
N#Cc1ccc(/C=N/NC(=O)c2[nH]c3ccc(Br)cc3c2-c2ccccc2)o1	786-0 renal	growth	%	-1.06
O=C(NNc1nc2cc(F)ccc2n2c(CN3CCCCC3)ccc12)c1cnccn1	786-0 renal	growth	%	-98.3
CC(=O)Nc1cccc(-c2nc3cc(-c4ccc(O)cc4)ccc3n2C)c1	786-0 renal	growth	%	63.2
Nc1nc(-c2ccccc2)c(N=Nc2ccc(Cl)cc2[N+](=O)[O-])s1	786-0 renal	growth	%	93.4
COc1cc(/C=C/C(=O)c2ccccc2)ccc1Oc1nc(Nc2ccc(F)cc2)nc(N(C)C)n1	786-0 renal	growth	%	39.6
CCCCCCCCc1ccc(C(=O)Nc2cccc(P(=O)(O)O)c2)cc1	786-0 renal	growth	%	104
COCOc1cc2oc(C(=O)N[C@@H](Cc3ccccc3)C(O)C(=O)NCc3ccccc3)c(C)c(=O)c2cc1OCOC (some centres undefined)	786-0 renal	growth	%	14.5
CC1(C)CC[C@]2(C(=O)Nc3ccc(Br)cc3)CC[C@]3(C)C(=CCC4[C@@]5(C)C[C@@H](O)[C@H](O)[C@@](C)(CO)C5CC[C@]43C)C2C1 (some centres undefined)	786-0 renal	growth	%	-28.2
CCCCSc1nc(Nc2ccc(S(N)(=O)=O)cc2)c(C#N)c(-c2cc(OC)c(OC)c(OC)c2)n1	786-0 renal	growth	%	57.1

---

# Test system: NCI/ADR-RES ovarian
# Protocol summary: NCI-60 one-dose screen, 48 h
# Study conditions: 10 µM unless noted
About 83,000 compounds went through this panel and 20% of them were active in at least one assay; those are over-represented in the sample as a whole. Activity calls are given as the source filed them. Rule for the calls: active = growth percent below 10; inactive = the rest.
Labels: true = active, false = inactive

Molecule	Category label
Cc1ccc(S(=O)(=O)c2nc(S(=O)(=O)c3ccc(C)cc3)c(N3CCC(O)CC3)s2)cc1	false
O=c1oc2ccc(Br)cc2cc1C1=CSc2nc3sc4c(c3c(=O)n2N=C1)CCCC4	false
O=C(NNc1nc2cc(F)ccc2n2c(CN3CCCCC3)ccc12)c1cnccn1	true
COc1ccc(-c2cc(C(=O)NCc3ccccc3)nn2-c2ccc(S(C)(=O)=O)cc2)cc1OC	false
O=c1oc2ccccc2cc1-c1csc(N=Nc2c(O)[nH]c3ccc(Cl)cc23)n1	false
N#Cc1cnn(C(=O)c2ccccc2Br)c1NC(=O)c1ccc(Br)cc1Cl	false
C=C1CC[C@@H]2[C@]3(C)COC(c4cn[nH]c4-c4ccccc4)O[C@@H]3CC[C@@]2(C)[C@@H]1C/C=C1/C(=O)OCC1O (some centres undefined)	false
CC(C)CSc1nc(NCCc2c[nH]c3ccccc23)c(C#N)c(-c2ccccc2)n1	false
COc1ccc(-c2ccnc(SCc3cc4cc(Cl)ccc4[nH]c3=O)n2)cc1	false

---

# Tested on: T-47D breast
# Protocol summary: NCI-60 one-dose screen, 48 h
# Study conditions: 10 µM unless noted
This is part of a sample that, as a whole, favours compounds with a hit. Of some 83,000 tested, about 20% had one in any assay. Active and inactive are the calls of the source. Rule for the calls: active = growth percent below 10; inactive = the rest.
Outcome codes: active, inactive

Compound	Category label
C=C1CC[C@@H]2[C@]3(C)COC(c4cn[nH]c4-c4ccc(Br)cc4)O[C@@H]3CC[C@@]2(C)[C@@H]1C/C=C1/C(=O)OCC1O (some centres undefined)	inactive
C#CCOc1ccc(/C=N/Nc2nc(-c3cc4cc(Br)ccc4oc3=O)cs2)cc1OC	inactive
CC(C)(C)OC(=O)/C=C/c1cccc2c1C(=O)NC(C)(c1cc3cc(Cl)ccc3oc1=O)N2 (centres undefined)	active
O=c1c2ccccc2nc(-c2ccccc2)n1/N=C/c1ccc2ccccc2c1	inactive

---

# Tested on: HCT-15 colon
# Protocol summary: NCI-60 one-dose screen, 48 h
# Study conditions: 10 µM unless noted
This is part of a sample that, as a whole, favours compounds with a hit. Of some 83,000 tested, about 20% had one in any assay. Calls of active or inactive are those of the source. How the source made its calls: active means growth percent below 10; inactive means the rest.
Outcomes: yes = active, no = inactive

Given smiles	Category label
N/N=C(\N)c1c(N)nc(=S)[nH]c1-c1ccc(Cl)cc1Cl	no
Cc1cc2nc3c4ccccc4n(CCNCCN(C)C)c3nc2cc1C	yes
CCCCNC(=S)Nc1ccc(OCc2nc3ccccc3[nH]2)cc1	no
Cc1cc(=O)oc2cc(OCCCCOc3ccc(/C=C/C(=O)Nc4ccccc4N)cc3)ccc12	no
CNC(=O)c1cc(Oc2ccc3nc(NC(=O)Nc4cccc(OC(F)(F)F)c4)sc3c2)ccn1	no
N#Cc1c(-c2cccc(O)c2O)cc(-c2ccc3ccccc3c2)[nH]c1=O	no
CC(C)Sc1nc(NCCc2c[nH]c3ccccc23)c(C#N)c(-c2ccc(F)cc2)n1	yes
CCCSc1nc(NCCc2c[nH]c3ccccc23)c(C#N)c(-c2ccccc2)n1	no
C/C(=N\N=C1/C(=O)Nc2ccccc21)c1ccc2c(c1)Nc1ccccc1S2	no
CN(C)CCCNC(=O)c1cc(NC(=O)c2cc(NC(=O)c3ccc(/C=C/c4ccccc4)cc3)cn2C)cn1C	no
O=C1C(=Nc2ccc(F)c(Cl)c2)c2cccc3cccc1c23	yes
S=C(NCCc1ccccc1)Nc1ccc(OCc2nc3ccccc3[nH]2)cc1	no
O=C(COc1ccc(NC(=O)Nc2ccc(Cl)c(Cl)c2)cc1)N=Nc1c(O)[nH]c2ccc(Br)cc12	no
CSc1ccccc1NC(=O)c1ccc2nn(/C(C#N)=C/c3ccccn3)nc2c1	yes
CCCCCCCCc1ccc(C(=O)Nc2ccc(C)cc2C(=O)O)cc1C	no
COc1cc(-c2nc3cc(Cl)c(Cl)cc3[nH]2)ccc1OCc1nnc(-c2cccs2)o1	no
O=C1c2c(c3c4cc(F)ccc4oc3c3[nH]c4ccc(Br)cc4c23)C(=O)N1O	no
O=c1[nH]c(=O)c2c(-c3cc4ccccc4oc3=O)ccnc2[nH]1	no
CCC(C)(C)c1ccc(OCCCCCCN2CCN(c3ccncc3)CC2)cc1	yes
C#C[C@]1(O)CC[C@H]2[C@@H]3CC=C4c5sc(-c6ccc([N+](=O)[O-])cc6)nc5CC[C@]4(C)[C@H]3CC[C@@]21C	yes
